study-target: T1, polypeptide GC3pep (human)
T1 construct: also called membrane proximal polypeptide GC3pep
T1 peptide: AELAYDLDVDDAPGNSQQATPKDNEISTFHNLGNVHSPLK
measurement-notes: ELISA, GC3pep coated, antibody 0.0001 nM
Attribute: OD450 nm
Just the number please, in OD450 nm, no unit attached.

F1.73.9 (antibody, human IgG1, kappa, V domains shown, human-murine chimeric antibody) VH: QVQLKQSGAELVRPGASVKLSCKASGYTFTDYYINWVKQRPGQGLEWIARIYPGSGNTYYNEKFKGKATLTAEKSSSTAYMQFSSLTSEDSAVYFCACSTYYTMDYWGQGTSVTVSS VL: QIVLTQSPAIMSASLGERVTMTCTASSGVSSSYLHWYQQKPGSSPKLWIYTTSNLASGVPARFSGSGSGTSYSLTISSMEAEDAATYYCHQYHRSPYTFGGGTKLEIKR :: 0.04

Next binder, OD450 nm to be filled in.
The recorded OD450 nm for F1.62.9 (antibody, human IgG1, kappa, V domains shown, human-murine chimeric antibody) VH: QVQLQQSDAELVKPGASVKISCKVSGYIFTDHTIHWMKQRPEQGLEWIGYIYPRDGSIKYNENFKGKATLTADKSSSATYMQLNSLTSEDSAVYFCARPIYYDYAYYFDYWGQGTTLTVSS VL: DVVMTQSPLSLPVSLGDQASISCRSRQSLVHSNGNTYLHWYLQKPGQSPKVLIYKVSNRFSGVPDRFSGSGSGTDFTLKISRVEAEDLGVYFCSQSTHVPYTFGGGTKLEIKR is 0.05
